This section presents compounds with their documented Major peak values.
test-method-notes: Test 3 stability data under −20° C. for 6 months (liquid chromatography)
Type: physicochemical
recorded-conditions: 5 months, in % (unit assumed)
# print the numeric value only

>  <compound>
CCCCCCOC(=O)/N=C(/N)c1ccc(NCc2nc3cc(C(=O)N(CCC(=O)OCC)c4ccccn4)ccc3n2C)cc1.CS(=O)(=O)O [Crystal form M]

>  <result>
99.739

$$$$
>  <compound>
CCCCCCOC(=O)/N=C(/N)c1ccc(NCc2nc3cc(C(=O)N(CCC(=O)OCC)c4ccccn4)ccc3n2C)cc1.CS(=O)(=O)O [Semihydrate crystal form]

>  <result>
99.840

$$$$
>  <compound>
CCCCCCOC(=O)/N=C(/N)c1ccc(NCc2nc3cc(C(=O)N(CCC(=O)OCC)c4ccccn4)ccc3n2C)cc1.CS(=O)(=O)O [Crystal form N]

>  <result>
99.734

$$$$
>  <compound>
CCCCCCOC(=O)/N=C(/N)c1ccc(NCc2nc3cc(C(=O)N(CCC(=O)OCC)c4ccccn4)ccc3n2C)cc1.CS(=O)(=O)O [Crystal form II]

>  <result>
99.632

$$$$

Then there is this compound:
Ask: For the compound CCCCCCOC(=O)/N=C(/N)c1ccc(NCc2nc3cc(C(=O)N(CCC(=O)OCC)c4ccccn4)ccc3n2C)cc1.CS(=O)(=O)O [Crystal form I] , report Major peak.
Reply: 99.691
